Test system: effet analgésique de la morphine
Assay Explanation: Hot plate test: antagonism of the analgesic effect of morphine
Type: in vivo, souris
Recorded Conditions: ratio of DI50 for the analgesic effect (hot plate) to DI50 for the constipating effect (charcoal meal)
Observation Type: DI50a/DI50c

Guide cases for DI50a/DI50c, answers given:
| Compound | Observation Type | Recorded Measurement |
| --- | --- | --- |
| C=CCN1CC[C@]23c4c5ccc(O)c4O[C@H]2C(=O)CC[C@@]3(O)[C@H]1C5 | DI50a/DI50c | 0,08 |
| C=CC[N+]1(C)CCC23c4c5ccc(O)c4OC2C(O)C=CC3C1C5 (single isomer, unassigned) [bromométhylate de nalorphine] | DI50a/DI50c | 2,32 |
| C=CC[N+]1(CC=C)CC[C@]23CCCC[C@H]2[C@H]1Cc1ccc(O)cc13 [bromoallylate de lévallorphan] | DI50a/DI50c | 0,97 |

// moving on: another record for DI50a/DI50c
### Prompt Which DI50a/DI50c value belongs to C=CC[N+]1(C)CC[C@]23CCCC[C@H]2[C@H]1Cc1ccc(O)cc13 (single isomer, unassigned) [iodométhylate de lévallorphan] ?
### Response 6,7
